# Substrate: pcPET (post-consumer)
# Method Description: Proxy for plastic degradation [Released monomer concentration (HPLC/LC-MS) (TPA+MHET+BHET)]
# Condition Details: pH 9; 40 °C; 24 h
Reported Metric: Proxy for plastic degradation (µM)
Reply with just the number (in µM).

# Protein, Numeric Readout
measured = [
    ("unnamed (protein) MLSFLRSTGRPERRRASLPALLLFTAALVASGLTAAPAAQAADNPYQRGPDPTNASIEAATGPFAVGTQPIVGASGFGGGQIYYPTDTSQTYGAVVIVPGFISVWAQLNWLGPRLASQGFVVIGIETSVITDLPDSRGDQALAALDWATTRSPVASRIDRTRLAAAGWSMGGGGLRRAALQRPSLKAIVGMAPWNGERNWSAVTVPTLFFGGSSDAVASPNDHAKPFYNSITRAEKDYIELRNADHFFPTSANTTMAKYFISWLKRWVDNDTRYTQFLCPGPSTGLFAPVSASMNTCPF", 680),
]

Now consider a different protein.
// query Give the measured Proxy for plastic degradation of unnamed (protein) MLSFLRSTGRPERRRASLPALLLFTAALVASGLTAAPAAQAADNPYQRGPDPTNASIEAATGPFAVGTQPIVGASGFGGGQIYYPTDTSQTYGAVVIVPGFISVWAQLNWLGPRLASQGFVVIGIETSTITDLPDPRGDQALAALDWATTRSPVASRIDRTRLAAAGWSMGGGGLRRAALQRPSLKAIVGMAPWNGERNWSAVTVPTLFFGGSSDAVASPNDHAKPFYNSITRAEKDYIELRNADHFFPTSANTTMAKYFISWLKRWVDNDTRYTQFLCPGPSTGLFAPVSASMNTCPF .
// result 990
